System: LOX IMVI melanoma
MEASUREMENT_PROTOCOL: NCI-60 one-dose screen, 48 h (100 = growth as untreated, 0 = no growth, -100 = all killed)
EXPERIMENTAL_CONTEXT: 10 µM
Compounds without any hit were thinned out: in the full panel of roughly 83,000, 20% have a hit.
Quick list: growth per entry.
The reply should be a number in %, with the unit left off.

// solved cases for growth follow
MOLECULE	VALUE_UNIT	OBSERVED_RESULT
Cc1ccc(-c2nc(C#N)c(S(=O)(=O)N3CCN(S(C)(=O)=O)CC3)o2)cc1	%	-88.6
CCOC(=O)c1ccc(NC(=O)CSC(CC(=O)c2sc(Nc3ccccn3)nc2C)c2ccccc2F)cc1 (stereo not given)	%	-76.8
Cc1cc(N=C2NC(=O)S/C2=C\c2ccc(F)cc2)n[nH]1	%	-59.8
Cn1cc(-c2nc(N)nnc2-c2c[nH]c3ccccc23)c2cc(Br)cnc21	%	15.6
COc1cc(Nc2nc(O)c(/C=C3\C=Nc4ccccc43)s2)cc(OC)c1OC	%	-61.5

Qu. // query growth value for entry COc1ccccc1-n1cc(C#N)c(N)c1C(=O)c1ccc(Cl)cc1Cl
Ans. 39.5

Qu. // query growth value for entry COc1ccc(C2c3sc4ccc(C)cc4c3Oc3nc[nH]c(=O)c32)cc1 (stereo not given)
Ans. 92.5

Qu. // query growth value for entry CC1(C)CC[C@]2(C(=O)O)CC[C@]3(C)C(=CCC4[C@@]5(C)C[C@@H](O)[C@@H]6OC(c7cccc(F)c7)OC[C@@]6(C)C5CC[C@]43C)C2C1 (stereo not given in full)
Ans. 27.6

Qu. // query growth value for entry CCn1c(SCC(=O)Nc2ccc(-c3nc4ccccc4[nH]3)cc2)nc2ccccc2c1=O
Ans. -63

Qu. // query growth value for entry O=C(O)CCN1C(=O)/C(=C/C=C/c2ccc([N+](=O)[O-])o2)SC1=S
Ans. -100
